assay: Cmax in mouse plasma at 250 mg/kg, po measured after 24 hrs; format: ADME, organism-based; design: dose 250 mg/kg, time 24 hrs, route po
reported.property: Cmax (nM)
One number for each entry, in nM.

// query Give me measured Cmax, please, for this compound: Oc1cc(O)c2c(c1)O[C@H](c1ccc(O)c(O)c1)[C@H](O)[C@H]2c1c(O)cc(O)c2c1O[C@H](c1ccc(O)c(O)c1)[C@H](O)C2
// result 160

----------
Target: Melatonin receptor type 1B (Homo sapiens)
Sequence (P49286 whole entry): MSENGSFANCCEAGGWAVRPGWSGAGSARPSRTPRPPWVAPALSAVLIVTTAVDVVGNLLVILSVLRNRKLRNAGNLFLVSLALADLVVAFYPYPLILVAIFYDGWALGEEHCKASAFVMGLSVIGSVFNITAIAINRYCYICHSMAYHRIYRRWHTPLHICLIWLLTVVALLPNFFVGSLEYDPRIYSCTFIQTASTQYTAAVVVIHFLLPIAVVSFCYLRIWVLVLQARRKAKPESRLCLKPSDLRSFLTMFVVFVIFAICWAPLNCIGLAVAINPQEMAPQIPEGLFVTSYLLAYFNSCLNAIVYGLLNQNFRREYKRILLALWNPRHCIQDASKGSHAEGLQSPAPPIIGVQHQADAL
Experiment: Agonist activity at human melatonin MT2 receptor stably expressing in human HEK293 cells
reported.property: IC50

// query Item Oc1cc(O)c2c(c1)O[C@H](c1ccc(O)c(O)c1)[C@@H](O)C2 : provide IC50
// result 47.3 µM
